# tgt: human topoisomerase II (Homo sapiens)
# Sequence (P11388 whole entry): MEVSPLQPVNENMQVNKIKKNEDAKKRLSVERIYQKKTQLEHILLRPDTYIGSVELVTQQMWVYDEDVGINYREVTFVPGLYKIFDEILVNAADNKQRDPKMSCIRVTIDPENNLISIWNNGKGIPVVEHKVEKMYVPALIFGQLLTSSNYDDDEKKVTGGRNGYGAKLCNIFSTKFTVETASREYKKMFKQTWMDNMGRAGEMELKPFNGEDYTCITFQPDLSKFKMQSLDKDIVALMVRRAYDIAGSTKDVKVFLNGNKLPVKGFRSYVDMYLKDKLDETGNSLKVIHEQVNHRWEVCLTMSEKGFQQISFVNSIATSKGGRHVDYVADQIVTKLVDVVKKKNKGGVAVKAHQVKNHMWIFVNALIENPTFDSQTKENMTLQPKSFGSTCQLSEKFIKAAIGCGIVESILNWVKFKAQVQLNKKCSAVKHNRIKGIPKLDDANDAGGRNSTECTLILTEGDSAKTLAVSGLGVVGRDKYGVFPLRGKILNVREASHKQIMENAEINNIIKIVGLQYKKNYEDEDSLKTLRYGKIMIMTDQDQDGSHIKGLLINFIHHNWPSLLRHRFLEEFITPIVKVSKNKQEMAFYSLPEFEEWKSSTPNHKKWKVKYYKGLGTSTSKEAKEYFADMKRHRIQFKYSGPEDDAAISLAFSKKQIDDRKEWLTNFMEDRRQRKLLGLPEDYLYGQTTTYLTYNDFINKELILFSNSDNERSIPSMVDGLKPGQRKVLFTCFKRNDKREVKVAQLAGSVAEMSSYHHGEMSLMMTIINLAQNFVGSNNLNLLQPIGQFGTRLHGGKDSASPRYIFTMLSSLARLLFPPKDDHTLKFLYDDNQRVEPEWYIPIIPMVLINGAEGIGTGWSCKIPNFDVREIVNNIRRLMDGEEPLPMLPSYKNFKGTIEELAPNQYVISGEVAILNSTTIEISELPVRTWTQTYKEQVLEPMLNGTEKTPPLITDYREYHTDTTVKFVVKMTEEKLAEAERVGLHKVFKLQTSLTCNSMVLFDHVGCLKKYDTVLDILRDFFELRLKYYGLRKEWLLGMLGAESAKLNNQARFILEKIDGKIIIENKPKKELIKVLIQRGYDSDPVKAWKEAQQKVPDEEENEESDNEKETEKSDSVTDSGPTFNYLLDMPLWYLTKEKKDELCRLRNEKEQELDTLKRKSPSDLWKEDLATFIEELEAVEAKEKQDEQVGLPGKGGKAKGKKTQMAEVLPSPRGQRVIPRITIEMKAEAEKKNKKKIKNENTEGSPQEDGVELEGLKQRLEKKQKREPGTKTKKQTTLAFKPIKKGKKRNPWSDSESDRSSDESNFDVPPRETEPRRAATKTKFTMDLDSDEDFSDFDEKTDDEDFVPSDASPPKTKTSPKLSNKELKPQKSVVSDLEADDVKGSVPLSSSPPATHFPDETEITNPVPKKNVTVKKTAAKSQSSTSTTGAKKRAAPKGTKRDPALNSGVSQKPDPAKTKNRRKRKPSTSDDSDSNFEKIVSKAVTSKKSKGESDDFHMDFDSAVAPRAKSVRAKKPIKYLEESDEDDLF
# assay_info: DNA Topo II inhibition (kDNA decatenation) assay
# Assay type: biochemical
# condition_set: conc 1 (μM)
endpoint_name: %inh TOPO II (%)

Below, each entry is followed by its recorded %inh TOPO II result.
molecule: CCOC(=O)C1=C(C)N=C2SC=C(NC(=O)c3c(Cl)cc(Cl)cc3Cl)N2C1c1ccc(OC)cc1OC (stereo not drawn)
%inh TOPO II [%]: 60
//
molecule: CCOC(=O)C1=C(C)N=C2SC=C(NC(=O)Nc3ccc(Cl)c(C(F)(F)F)c3)N2C1c1ccc(OC)cc1OC (stereo not drawn)
%inh TOPO II [%]: 52

A. CCOC(=O)C1=C(C)N=c2sc(=Cc3ccc(OC)cc3)c(=O)n2C1c1ccc(OC)cc1OC (stereo not drawn)
B. CCOC(=O)C1=C(C)N=C2SC=C(NC(=O)CN3CCOCC3)N2C1c1ccc(OC)cc1OC (stereo not drawn)
Query: Which value of %inh TOPO II is greater, the one for A or the one for B ? Answer by stating the label of the chosen item.
Result: B
(B: 44%, A: 30%)
